assaySystem: T1, recombinant biotinylated human CD71 extracellular domain (human, UniProt P02786 89-760, biotinylated)
T1 construct: extracellular domain; also called hCD71; huCD71 ECD
T1 sequence (P02786 other isoform, or with tags, fused parts or gaps): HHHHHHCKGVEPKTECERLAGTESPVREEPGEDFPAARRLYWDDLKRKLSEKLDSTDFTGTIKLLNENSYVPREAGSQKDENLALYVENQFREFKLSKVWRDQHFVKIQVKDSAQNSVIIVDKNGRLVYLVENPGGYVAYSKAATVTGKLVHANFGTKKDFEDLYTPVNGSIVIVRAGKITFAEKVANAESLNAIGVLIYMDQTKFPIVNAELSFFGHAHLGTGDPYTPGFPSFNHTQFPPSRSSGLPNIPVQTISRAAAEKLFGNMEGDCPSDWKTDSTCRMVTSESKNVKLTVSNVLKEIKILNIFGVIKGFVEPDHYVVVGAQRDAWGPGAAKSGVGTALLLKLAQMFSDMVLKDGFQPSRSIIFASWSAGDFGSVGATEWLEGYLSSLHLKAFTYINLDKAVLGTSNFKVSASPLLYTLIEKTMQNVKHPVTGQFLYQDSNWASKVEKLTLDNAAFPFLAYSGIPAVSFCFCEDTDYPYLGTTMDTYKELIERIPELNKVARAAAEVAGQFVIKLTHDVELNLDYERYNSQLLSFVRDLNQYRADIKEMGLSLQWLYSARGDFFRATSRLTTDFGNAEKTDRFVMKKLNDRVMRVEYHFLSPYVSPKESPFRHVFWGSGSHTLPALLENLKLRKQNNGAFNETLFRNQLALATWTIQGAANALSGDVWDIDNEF
runDescription: solution ELISA
Recorded measurements of hCD71, RLU, one per entry
experimentalReadout: hCD71, RLU (RLU)

1. SEQ ID NO 131 (designed binder, FN3 domain) MLPAPKNLVVSRVTEDSARLSWTAPDAAFDSFYIAYAEPRPDGEAIHLWVPGSERSYDLTGLKPGTEYSVLIHGVKGGLLSSPLIAHFTT ... 203000
2. SEQ ID NO 134 (designed binder, FN3 domain) MLPAPKNLVVSRVTEDSARLSWTAPDAAFDSFYIAYAEPRPDGEAIGLQVPGSERSYDLTGLKPGTEYSVLIHGVKGGLLSSPLSAIFTT ... 640000
3. SEQ ID NO 112 (designed binder, FN3 domain) MLPAPKNLVVSRVTEDSARLSWTAPDAAFDSFYIAYAEPRPDGEAILLLVPGSERSYDLTGLKPGTEYSVLIHGVKGGLLSSPLSAIFTT ... 4.48e+06
4. SEQ ID NO 182 (designed binder, FN3 domain) MLPAPKNLVVSRVTEDSARLSWTAPDAAFDSFYIAYAEPRPDGEAIDLHVPGSERSYDLTGLKPGTEYSVLIHGVKGGLLSSPLHALFTT ... 197000
5. SEQ ID NO 164 (designed binder, FN3 domain) MLPAPKNLVVSRVTEDSARLSWTAPDAAFDSFYIAYAEPRPDGEAIILRVPGSERSYDLTGLKPGTEYSVLIHGVKGGLLSSPLVAIFTT ... 3.78e+06
6. SEQ ID NO 123 (designed binder, FN3 domain) MLPAPKNLVVSRVTEDSARLSWTAPDAAFDSFFIGYLEPQPPGEAIQLWVPGSERSYDLTGLKPGTEYNVTIQGVKGGFPSHPLGAVFTT ... 1.25e+06
7. SEQ ID NO 159 (designed binder, FN3 domain) MLPAPKNLVVSRVTEDSARLSWTAPDAAFDSFYIAYAEPRPDGEAIYLKVPGSERSYDLTGLKPGTEYSVLIHGVKGGLLSSPLVAHFTT ... 185000
8. SEQ ID NO 190 (designed binder, FN3 domain) MLPAPKNLVVSRVTEDSARLSWTAPDAAFDSFYIAYAEPRPDGEAISLDVPGSERSYDLTGLKPGTEYSVLIHGVKGGLLSSPLEASFTT ... 385000
9. SEQ ID NO 187 (designed binder, FN3 domain) MLPAPKNLVVSRVTEDSARLSWTAPDAAFDSFFIGYLEPQPPGEAISLLVPDSERSYDLTGLKPGTEYNVTIQGVKGGFPSMPLKFTT ... 796000
10. SEQ ID NO 145 (designed binder, FN3 domain) MLPAPKNLVVSRVTEDSARLSWTAPDAAFDSFYIAYAEPRPDGEAILLQVPGSERSYDLTGLKPGTEYSVLIHGVKGGLLSSPLTAIFTT ... 6.2e+06
11. SEQ ID NO 113 (designed binder, FN3 domain) MLPAPKNLVVSRVTEDSARLSWTAPDAAFDSFYIAYAEPRPDGEAINLQVPGSERSYDLTGLKPGTEYSVLIHGVKGGLLSSPLVAFFTT ... 1.27e+06
12. SEQ ID NO 119 (designed binder, FN3 domain) MLPAPKNLVVSRVTEDSARLSWTAPDAAFDSFYIAYAEPRPDGEAINLDVPGSERSYDLTGLKPGTEYSVLIHGVKGGLLSSPLVAEFTT ... 1.25e+06
13. SEQ ID NO 186 (designed binder, FN3 domain) MLPAPKNLVVSRVTEDSARLSWTAPDAAFDSFYIAYAEPRPDGEAIQLGVPGSERSYDLTGLKPGTEYSVLIHGVKGGLLSSPLSAIFTT ... 844000
14. SEQ ID NO 171 (designed binder, FN3 domain) MLPAPKNLVVSRVTEDSARLSWTAPDAAFDSFYIAYAEPRPDGEAIQLWVPGSERSYDLTGLKPGTEYSVLIHGVKGGLLSSPLDAYFTT ... 653000
15. SEQ ID NO 122 (designed binder, FN3 domain) MLPAPKNLVVSRVTEDSARLSWTAPDAAFDSFYIAYAEPRPDGEAIILVVPGSERSYDLTGLKPGTEYSVLIHGVKGGLLSSPLSAHFTT ... 4.77e+06
16. SEQ ID NO 174 (designed binder, FN3 domain) MLPAPKNLVVSRVTEDSARLSWTAPDAAFDSFFIGYLEPQPPGEAIQLWVPGSERSYDLTGLKPGTEYNVTIQGVKGGFPSMPLSAIFTT ... 1.9e+06
17. SEQ ID NO 108 (designed binder, FN3 domain) MLPAPKNLVVSRVTEDSARLSWTAPDAAFDSFFIGYLEPQPPGEAIQLRVPGSERSYDLTGLKPGTEYNVTIQGVKGGFPSMPLSAIFTT ... 932000
18. SEQ ID NO 168 (designed binder, FN3 domain) MLPAPKNLVVSRVTEDSARLSWTAPDAAFDSFYIAYAEPRPDGEAILLDVPGSERSYDLTGLKPGTEYSVLIHGVKGGLLSSPLSAIFTT ... 3.97e+06

The values you see were collected from patent US20220332795A1.
